Attribution: paper PMC6237300

# Study target: NA of B/Khentii/1137/2014 (G140R) (Influenza B virus, UniProt U5XBU0, G140R)
Measurement name: IC50 (nM)
Please respond with the number in nM and leave the unit unwritten.

Entry CCC(CC)[C@H](NC(C)=O)[C@@H]1[C@H](O)[C@@H](C(=O)O)C[C@H]1N=C(N)N [Peramivir, peramivir] : IC50 on NA of B/Khentii/1137/2014 (G140R) (Influenza B virus, UniProt U5XBU0, G140R) = 7.18

----------
# Study target: NA of B/Ulaanbaatar/1708/2014 (G104R) (Influenza B virus, UniProt U5XBU0, G104R)
Measurement name: IC50 (µM)
Give just the numeric value; µM need not be written.

# "CCC(CC)[C@H](NC(C)=O)[C@@H]1[C@H](O)[C@@H](C(=O)O)C[C@H]1N=C(N)N" with NA of B/Ulaanbaatar/1708/2014 (G104R) (Influenza B virus, UniProt U5XBU0, G104R): IC50 is 288

----------
# Study target: NA of B/Ulaanbaatar/1495/2014 (E105K) (Influenza B virus, UniProt U5XBU0, E105K)
Measurement name: IC50 (µM)
The reply should be a number in µM, with the unit left off.

// assay NA of B/Ulaanbaatar/1495/2014 (E105K) (Influenza B virus, UniProt U5XBU0, E105K), entry "CCC(CC)[C@H](NC(C)=O)[C@@H]1[C@H](O)[C@@H](C(=O)O)C[C@H]1N=C(N)N" , IC50 value = 3.27
